Overview of reported viability, T/C across a group of compounds:
- System: 242566-281-R-J2-PDC complex spheroid viability;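 also: spheroids exposed to compound for 7 days before readout; 100% = DMSO vehicle control wells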
- procedure-details: Anticancer human tumor 242566-281-R-J2-PDC patient-derived pancreatic carcinoma cell line growth inhibition [RAS]
- assay-setup: second compound 0.0949 µM; first compound 0.1 µM; hits give low values
The figure you give is taken to be in %; do not add the unit.

Observe how each entry below is paired with its result.
C=CC(=O)N1CCN(c2nc(OCC3CCCN3C)nc3c(F)c(-c4nc(N)cc(C)c4C(F)(F)F)c(Cl)cc23)C(C)C1 (centres undefined) + CCn1c(-c2cc(N3CCN(C)CC3)cnc2C(C)OC)c2c3cc(ccc31)-c1csc(n1)CC(NC(=O)C1CC1C)C(=O)N1CCCC(N1)C(=O)OCC(C)(C)C2; 24.5
CC(C)n1nc(-c2ccc3oc(N)nc3c2)c2c(N)ncnc21 + CCn1c(-c2cccnc2C(C)OC)c2c3cc(ccc31)N1CCOC(CC(NC(=O)C(C(C)C)N(C)C(=O)C3(F)CCN(C(=O)C#CC(C)(C)N(C)C)CC3)C(=O)N3CCCC(N3)C(=O)OCC(C)(C)C2)C1; 31.9
CCC(CC)c1cc(NC2CCC(N)C2)n2nccc2n1 (centres undefined) + CCn1c(-c2cc(N3CCN(C)CC3)cnc2C(C)OC)c2c3cc(ccc31)-c1csc(n1)CC(NC(=O)C1CC1C)C(=O)N1CCCC(N1)C(=O)OCC(C)(C)C2; 21

Task item: Need viability, T/C, item CC(=O)OC12COC1CC(O)C1(C)C(=O)C(O)C3=C(C)C(OC(=O)C(O)C(NC(=O)OC(C)(C)C)c4ccccc4)CC(O)(C(OC(=O)c4ccccc4)C21)C3(C)C (centres undefined) + CCn1c(-c2cccnc2C(C)OC)c2c3cc(ccc31)N1CCOC(CC(NC(=O)C(C(C)C)N(C)C(=O)C3(F)CCN(C(=O)C#CC(C)(C)N(C)C)CC3)C(=O)N3CCCC(N3)C(=O)OCC(C)(C)C2)C1
Reply: 34.5
